Below, each entry is listed with its recorded pEC50.
- Experimental system: Nociceptin receptor (Cavia porcellus, UniProt P47748)
- Sequence (P47748 whole entry): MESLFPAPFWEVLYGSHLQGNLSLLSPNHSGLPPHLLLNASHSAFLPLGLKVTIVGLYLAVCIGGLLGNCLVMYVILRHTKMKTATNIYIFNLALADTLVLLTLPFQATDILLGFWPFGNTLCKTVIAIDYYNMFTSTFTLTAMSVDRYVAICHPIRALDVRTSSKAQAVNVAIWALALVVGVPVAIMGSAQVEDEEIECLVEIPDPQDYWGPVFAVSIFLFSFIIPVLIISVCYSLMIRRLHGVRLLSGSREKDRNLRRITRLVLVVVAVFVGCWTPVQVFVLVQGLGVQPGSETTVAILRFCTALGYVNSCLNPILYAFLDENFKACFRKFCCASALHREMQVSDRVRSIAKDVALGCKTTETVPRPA
- Protocol summary: Inhibition of electrically evoked contraction of guinea pig ileum
Worth noting: pEC50 values are minus log10 of concentrations stated in mol/L.

C[C@H](NC(=O)CNC(=O)[C@@H](NC(=O)[C@H](Cc1ccc(F)cc1)NC(=O)CNC(=O)CNC(=O)[C@@H](N)Cc1ccccc1)[C@@H](C)O)C(=O)N[C@@H](CCCNC(=N)N)C(=O)N[C@@H](CCCCN)C(=O)N[C@@H](CO)C(=O)N[C@@H](C)C(=O)N[C@@H](CCCNC(=N)N)C(=O)N[C@@H](CCCCN)C(=O)N[C@@H](CCCNC(=N)N)C(=O)N[C@@H](CCCCN)C(=O)N[C@@H](CC(N)=O)C(=O)N[C@@H](CCC(N)=O)C(N)=O = 8.98
CC(C)C[C@H](NC(=O)[C@H](CCCCN)NC(=O)[C@H](CCCN=C(N)N)NC(=O)[C@H](C)NC(=O)[C@H](CO)NC(=O)[C@H](CCCCN)NC(=O)[C@H](CCCN=C(N)N)NC(=O)[C@H](C)NC(=O)CNC(=O)[C@@H](NC(=O)[C@H](Cc1ccc(F)cc1)NC(=O)CNC(=O)CNC(=O)[C@@H](N)Cc1ccccc1)[C@@H](C)O)C(=O)N[C@@H](C)C(=O)N[C@@H](CC(N)=O)C(=O)N[C@@H](CCC(N)=O)C(N)=O = 8.73
CC(C)C[C@H](NC(=O)[C@H](CCCCN)NC(=O)[C@H](CCCN=C(N)N)NC(=O)[C@H](C)NC(=O)[C@H](CO)NC(=O)[C@H](CCCCN)NC(=O)[C@H](CCCN=C(N)N)NC(=O)[C@H](C)NC(=O)CNC(=O)[C@@H](NC(=O)[C@H](Cc1ccccc1)NC(=O)CNC(=O)CNC(=O)[C@@H](N)Cc1ccccc1)[C@@H](C)O)C(=O)N[C@@H](C)C(=O)N[C@@H](CC(N)=O)C(=O)N[C@@H](CCC(N)=O)C(=O)O [NOCICEPTIN] = 8.28

// next item, pEC50 requested
Give measured pEC50 for C[C@H](NC(=O)CNC(=O)[C@@H](NC(=O)[C@H](Cc1ccccc1)NC(=O)CNC(=O)CNC(=O)[C@@H](N)Cc1ccccc1)[C@@H](C)O)C(=O)N[C@@H](CCCN=C(N)N)C(=O)N[C@@H](CCCCN)C(=O)N[C@@H](CO)C(=O)N[C@@H](C)C(=O)N[C@@H](CCCN=C(N)N)C(=O)N[C@@H](CCCCN)C(=O)N[C@@H](CCCN=C(N)N)C(=O)N[C@@H](CCCCN)C(=O)N[C@@H](CC(N)=O)C(=O)N[C@@H](CCC(N)=O)C(N)=O (Nociceptin receptor (Cavia porcellus, UniProt P47748)). 8.95
